# assayedSystem: truncated PmiR protein (amino acids 15 to 232) (Pseudomonas aeruginosa, UniProt Q9I5E1)
# Sequence (Q9I5E1 15-232): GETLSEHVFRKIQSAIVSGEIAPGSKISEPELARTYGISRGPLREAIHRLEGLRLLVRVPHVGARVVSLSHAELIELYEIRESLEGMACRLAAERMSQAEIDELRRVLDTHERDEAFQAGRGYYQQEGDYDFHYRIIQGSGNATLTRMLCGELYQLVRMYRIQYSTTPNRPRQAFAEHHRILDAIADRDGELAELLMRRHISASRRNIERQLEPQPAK
# assay: ITC
property: pKd
Please express pKd as -log10 of the molar concentration.

If you can, please state the reported pKd value of C[C@](O)(C(=O)O)[C@H](CC(=O)O)C(=O)O (racemic) [MIC] .
4.20

====

Listed compounds paired with reported Kd
# assayedSystem: PmiR (Pseudomonas aeruginosa, UniProt Q9I5E1)
# Sequence (Q9I5E1 1-240): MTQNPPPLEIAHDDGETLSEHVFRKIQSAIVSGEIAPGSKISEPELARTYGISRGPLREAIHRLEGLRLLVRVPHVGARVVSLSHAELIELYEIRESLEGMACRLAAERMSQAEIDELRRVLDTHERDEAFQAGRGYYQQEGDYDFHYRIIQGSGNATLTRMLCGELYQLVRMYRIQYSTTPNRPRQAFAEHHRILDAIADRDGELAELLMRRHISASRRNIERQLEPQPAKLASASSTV
# assay: ITC
Field: numeric (µM). Do not append units.

compound="C[C@](O)(C(=O)O)[C@H](CC(=O)O)C(=O)O (racemic)" property=Kd numericresult=21.8

If you can, please state the reported Kd value of O=C(O)C[C@H](C(=O)O)[C@@H](O)C(=O)O [isocitrate] .
64.1
